The origin of these recorded values is patent US20240018189A1.

# TARGET SYSTEM: T1, human ferroportin (SLC40A1) fused in frame with GFP (human) (UniProt Q9NP59)
# T1 sequence (looked up): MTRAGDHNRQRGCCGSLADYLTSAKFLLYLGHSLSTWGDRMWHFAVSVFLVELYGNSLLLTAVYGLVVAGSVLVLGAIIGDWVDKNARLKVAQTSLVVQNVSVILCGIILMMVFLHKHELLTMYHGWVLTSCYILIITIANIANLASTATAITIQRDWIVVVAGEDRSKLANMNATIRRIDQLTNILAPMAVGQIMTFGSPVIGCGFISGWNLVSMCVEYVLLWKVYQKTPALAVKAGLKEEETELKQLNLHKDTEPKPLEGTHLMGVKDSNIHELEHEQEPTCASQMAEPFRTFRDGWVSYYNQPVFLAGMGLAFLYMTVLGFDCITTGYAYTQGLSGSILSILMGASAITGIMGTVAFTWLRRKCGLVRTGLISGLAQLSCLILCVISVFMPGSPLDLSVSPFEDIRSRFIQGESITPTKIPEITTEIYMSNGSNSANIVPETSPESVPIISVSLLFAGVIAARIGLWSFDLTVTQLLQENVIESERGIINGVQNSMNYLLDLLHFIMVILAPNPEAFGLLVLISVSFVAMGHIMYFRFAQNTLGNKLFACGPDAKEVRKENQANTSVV
# ASSAY PROCEDURE: cell-based or functional assay
Positions of bridges follow the written chain, without caps; N, C: chain ends. Non-standard residues stand in square brackets, D forms with d. Groups on a side chain read outwards from the residue. *: point of attachment. PEG12 = NCCOCCOCCOCCOCCOCCOCCOCCOCCOCCOCCOCCOCCC(=O)O; Dip = N[C@H](C(=O)O)C(c1ccccc1)c1ccccc1; Palmitoyl = CCCCCCCCCCCCCCCC(=O)*; β3hF = N[C@H](CC(=O)O)Cc1ccccc1; Isovaleryl = CC(C)CC(=O)*; Ahx = NCCCCCC(=O)O
OBSERVABLE: FPN EC50 (nM)

Some solved entries appear below for comparison.
| BINDER | FPN EC50 (nM) |
| --- | --- |
| Isovaleryl-DTH[Dip]PCI[β3hF]K([Ahx-Palmitoyl])[dK]C-NH2 (disulfide 6-11 (inferred)) [Compd. ID 206] | 10.8 |
| Isovaleryl-DTH[Dip]PCI[dK][β3hF]K([PEG12-Palmitoyl])P[dK]S[dK][Sarc]C[dK]-NH2 (disulfide 6-16 (inferred)) [Compd. ID 35] | 23.1 |

[a] DTHXPCIKXKPRSKC (N-term isovaleric acid; 4 Dpa; 8 (D)Lys; 9 bhPhe; 10 Lys(2Peg11′_Palm); C-term NH2) [Compd. ID 33]
[b] DTHXPCIKXKXC (not fully specified; N-term isovaleric acid; 4 Dpa; 8 (D)Lys; 9 bhPhe; 10 Lys(Ahx-Palm); 11 Spiral_Pip; C-term NH2) [Compd. ID 21]
Hi there! Just curious which has the higher FPN EC50 between a and b . Lab note: record the label of whichever item you select. b
(b: 37.5 nM, a: 25.4 nM)
